# ASSAY: Octanol-water distribution coefficient, log D of the compound at pH 7.4 at 100 ug/mL
# Assay type: physicochemical
# STUDY CONDITIONS: read-out: logD
The label depends only on logD: Satisfied if it is at least -0.3, Not satisfied if it is smaller.

Prompt: Test whether the molecule CCC(CC)O[C@@H]1C=C(C(=O)O)C[C@H](N)[C@H]1NC(C)=O [OSELTAMIVIR CARBOXYLATE] records logD of -0.3 or higher.
Response: Not satisfied

Prompt: Test whether the molecule `CCC(CC)O[C@@H]1C=C(C(=O)OCCCOC(=O)c2ccc3ccccc3c2O)C[C@H](NC(=N)N)[C@H]1NC(C)=O` records logD of -0.3 or higher.
Response: Satisfied

Prompt: Test whether the molecule `CC(=O)N[C@H]1[C@H]([C@H](O)[C@H](O)CO)OC(C(=O)O)=C[C@@H]1N=C(N)N` records logD of -0.3 or higher.
Response: Not satisfied

Prompt: Test whether the molecule `CCOC(=O)C1=C[C@@H](OC(CC)CC)[C@H](NC(C)=O)[C@@H](NC(=N)N)C1` records logD of -0.3 or higher.
Response: Satisfied

Prompt: Test whether the molecule `O=C(O)c1ccc2ccccc2c1O` records logD of -0.3 or higher.
Response: Satisfied

Prompt: Test whether the molecule `CC(=O)N[C@H]1[C@H]([C@H](O)[C@H](O)CO)OC(C(=O)OCCCOC(=O)c2ccc3ccccc3c2O)=C[C@@H]1NC(=N)N` records logD of -0.3 or higher.
Response: Satisfied

Switching to the query record.
Prompt: Test whether the molecule `CCOC(=O)C1=C[C@H](NC(=N)N)[C@@H](NC(C)=O)[C@H]([C@H](O)[C@H](O)CO)O1` records logD of -0.3 or higher.
Response: Satisfied

* * *

logD overview
# ASSAY: Octanol-water distribution coefficient, log D of the compound at pH 6.5
# Type: physicochemical
Number only, please.

Example results:
Prompt: Looking for the measured logD of `CCCCCCCOC(=O)C1=C[C@H](NC(=N)N)[C@@H](NC(C)=O)[C@H]([C@H](O)[C@H](O)CO)O1` , can you help?
Response: -1.31

Prompt: Looking for the measured logD of `O=C(O)c1ccc2ccccc2c1O` , can you help?
Response: 0.25

We next turn to a different compound, shown below.
Prompt: Looking for the measured logD of `CCOC(=O)C1=C[C@@H](OC(CC)CC)[C@H](NC(C)=O)[C@@H](NC(=N)N)C1` , can you help?
Response: -1.17
